Test system: Dermatophagoides pteronyssinus
Conditions: 0.5 mg/tube, 48 hr
Mortality (Means ± standard error, %) values for the molecules below.
Give just the number in a %; leave the unit off.

A selection of reference data follows.
> print(dat)
                           molecule  recorded.measurement
1                      O=Cc1ccccc1O                  92.0
2  CCCCN=C=S [butyl isothiocyanate]                  96.0
3  C=CCN=C=S [allyl isothiocyanate]                  94.0
4                   OC/C=C/c1ccccc1                  97.0

Kindly consider the entry below.
[ask] Looking for the measured Mortality (Means ± standard error, %) of O=C/C=C/c1ccccc1 [trans-cinnamaldehyde] , can you help?
[reply] 94.0

###

As shown below, each of these compounds has a reported Mortality (Means ± standard error, %) value.
Tested on: Dermatophagoides farinae
Conditions: 0.3 mg/tube, 24 hr

> print(dat)
                                  compound        measurement.target  recorded.measurement
1         C=CCN=C=S [allyl isothiocyanate]  Dermatophagoides farinae        22.0 ± 2.6 c %
2                          OC/C=C/c1ccccc1  Dermatophagoides farinae         39.0 ± 2.6b %
3  O=C/C=C/c1ccccc1 [trans-cinnamaldehyde]  Dermatophagoides farinae        32.0 ± 1.6bc %
4                             O=Cc1ccccc1O  Dermatophagoides farinae         27.0 ± 1.9c %

Proceeding to the next compound to report its Mortality (Means ± standard error, %).
[ask] What value of Mortality (Means ± standard error, %) has been reported for the following compound? CCCCN=C=S [butyl isothiocyanate]
[reply] 26.0 ± 2.0 c %

###

System: Dermatophagoides pteronyssinus
Conditions: 0.2 mg/tube, 24 hr
Measurement Kind: Mortality (Means ± standard error, %) (cd %)
Answer format: numeric, cd % implied, no suffix.

Solved cases (2 shown):
> print(dat)
                                  compound                       measurement.kind  recorded.measurement
1         C=CCN=C=S [allyl isothiocyanate]  Mortality (Means ± standard error, %)                   7.0
2  O=C/C=C/c1ccccc1 [trans-cinnamaldehyde]  Mortality (Means ± standard error, %)                   7.0

[ask] If you can, please state the reported Mortality (Means ± standard error, %) value of CCCCN=C=S [butyl isothiocyanate] .
[reply] 7.0

###

Test system: Dermatophagoides pteronyssinus
Conditions: 0.4 mg/tube, 48 hr
Measurement Kind: Mortality (Means ± standard error, %) (b %)
Respond numerically; units are b % and should not be typed.

> print(dat)
       compound  value.units  recorded.measurement
1  O=Cc1ccccc1O          b %                  46.0

Consider the additional compound presented here.
[ask] Query the reported Mortality (Means ± standard error, %) for Dermatophagoides pteronyssinus; item: `OC/C=C/c1ccccc1`
[reply] 62.0

###

Mortality (Means ± standard error, %) for assorted molecules
Tested on: Dermatophagoides pteronyssinus
Settings: 0.25 mg/tube, 48 hr
Just the number please, in bc %, no unit attached.

Below, each entry is followed by its recorded Mortality (Means ± standard error, %) result.
> print(dat)
                                  molecule                       measurement.kind  recorded.measurement
1  O=C/C=C/c1ccccc1 [trans-cinnamaldehyde]  Mortality (Means ± standard error, %)                  10.0
2         C=CCN=C=S [allyl isothiocyanate]  Mortality (Means ± standard error, %)                  10.0

Here's the next entry for you.
[ask] Recall the recorded Mortality (Means ± standard error, %) for CCCCN=C=S [butyl isothiocyanate] with Dermatophagoides pteronyssinus and state it.
[reply] 30.0

###

Test system: Dermatophagoides pteronyssinus
Details: 0.3 mg/tube, 48 hr
Entries and their Mortality (Means ± standard error, %) values follow.
Express your answer in b %, writing the number without its unit.

> print(dat)
                           molecule  recorded.measurement
1                   OC/C=C/c1ccccc1                  40.0
2  C=CCN=C=S [allyl isothiocyanate]                  32.0

Next molecule, Mortality (Means ± standard error, %) to be filled in.
[ask] Recorded Mortality (Means ± standard error, %) of O=C/C=C/c1ccccc1 [trans-cinnamaldehyde] , please.
[reply] 32.0

###

System: Dermatophagoides farinae
Conditions: 0.4 mg/tube, 48 hr
In this section, each of the compounds is paired with its reported Mortality (Means ± standard error, %).
Give just the numeric value; b % need not be written.

> print(dat)
                                  compound  value.units  recorded.measurement
1  O=C/C=C/c1ccccc1 [trans-cinnamaldehyde]          b %                  45.0

From here, focus on the item given below.
[ask] Could you share which Mortality (Means ± standard error, %) value was measured for `O=Cc1ccccc1O` ?
[reply] 48.0

###

Test system: Dermatophagoides pteronyssinus
Settings: 0.125 mg/tube, 24 hr
Measurement Kind: Mortality (Means ± standard error, %) (d %)
Answer format: numeric, d % implied, no suffix.

Would you please look over these solved cases?
> print(dat)
                                  compound  recorded.measurement
1  O=C/C=C/c1ccccc1 [trans-cinnamaldehyde]                   6.0
2         C=CCN=C=S [allyl isothiocyanate]                   6.0

// below: Mortality (Means ± standard error, %) requested for another compound
[ask] Which Mortality (Means ± standard error, %) is listed for CCCCN=C=S [butyl isothiocyanate] ?
[reply] 1.0

###

System: Dermatophagoides farinae
Details: 0.2 mg/tube, 24 hr
Experimental: American house dust mite (Dermatophagoides farinae) and European house dust mite (Dermatophagoide pteronyssinus) were maintained at 75±5% RH (relative humidity) at 25±1° C., and were provided a feed mixture of fish meal and multi-vitamins in a ratio of 1 to 1 on a 12.5×10.5×5 cm container. The starting concentration is important for the primary screening of bioactive compounds from plant extracts and oils. […] Mortalities were determined with a microscope at 24 hours and 48 hours after treatment. […]
Mortality (Means ± standard error, %) listing for selected compounds.
Please respond with the number in c % and leave the unit unwritten.

> print(dat)
   structure.string        measurement.target  recorded.measurement
1      O=Cc1ccccc1O  Dermatophagoides farinae                  22.0

Attention now shifts to the item below.
[ask] What Mortality (Means ± standard error, %) value was documented for this compound, `OC/C=C/c1ccccc1` ?
[reply] 7.0

###

Tested on: Dermatophagoides farinae
Settings: 0.4 mg/tube, 24 hr
Description: American house dust mite (Dermatophagoides farinae) and European house dust mite (Dermatophagoide pteronyssinus) were maintained at 75±5% RH (relative humidity) at 25±1° C., and were provided a feed mixture of fish meal and multi-vitamins in a ratio of 1 to 1 on a 12.5×10.5×5 cm container. The starting concentration is important for the primary screening of bioactive compounds from plant extracts and oils. […] Mortalities were determined with a microscope at 24 hours and 48 hours after treatment. […]
Measurement Kind: Mortality (Means ± standard error, %) (b %)
Report as a plain number; the unit b % is understood.

# count of solved cases: 4
> print(dat)
                             compound                       measurement.kind  value.units  recorded.measurement
1    CCCCN=C=S [butyl isothiocyanate]  Mortality (Means ± standard error, %)          b %                  44.0
2  OC/C=C/c1ccccc1 [cinnamyl alcohol]  Mortality (Means ± standard error, %)          b %                  58.0
3    C=CCN=C=S [allyl isothiocyanate]  Mortality (Means ± standard error, %)          b %                  44.0
4      O=Cc1ccccc1O [salicylaldehyde]  Mortality (Means ± standard error, %)          b %                  44.0

With those in mind, consider the next compound.
[ask] So what does the record say about Mortality (Means ± standard error, %) for O=C/C=C/c1ccccc1 [trans-cinnamaldehyde] ?
[reply] 41.0

###

Tested on: Dermatophagoides pteronyssinus
Details: 0.3 mg/tube, 24 hr
Measurement Kind: Mortality (Means ± standard error, %) (bc %)
Return type: number; implicit unit bc %.

> print(dat)
                                  molecule  recorded.measurement
1         C=CCN=C=S [allyl isothiocyanate]                  25.0
2  O=C/C=C/c1ccccc1 [trans-cinnamaldehyde]                  25.0

From here, focus on the item given below.
[ask] Missing value: Mortality (Means ± standard error, %), Dermatophagoides pteronyssinus, entry CCCCN=C=S [butyl isothiocyanate] . Fill in?
[reply] 32.0
